Value source: ChEMBL document CHEMBL1811866

Molecular target: UniProt P12746
Sequence (P12746 whole entry): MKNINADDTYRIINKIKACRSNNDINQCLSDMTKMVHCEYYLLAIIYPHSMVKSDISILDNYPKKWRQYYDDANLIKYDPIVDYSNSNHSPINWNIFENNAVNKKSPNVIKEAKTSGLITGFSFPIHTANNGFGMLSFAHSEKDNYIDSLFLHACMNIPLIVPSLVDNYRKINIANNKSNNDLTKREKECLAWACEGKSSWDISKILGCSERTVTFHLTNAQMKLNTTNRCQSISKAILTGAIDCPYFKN
Assay: Agonist activity at Vibrio fischeri ESI 114 (delta-LuxI) LuxR assessed as activation of quorum sensing at 10 uM relative to OHHL
Format: functional
OUTCOME MEASURE: Activity (%)

                            smiles_structure  readout_units  value_measured
 0       CCOC(=O)CNC(=O)Cc1ccc(SC(F)(F)F)cc1              %               0
 1      O=C(Cc1cccc([N+](=O)[O-])c1)NC1CCCC1              %              33
 2              CCOC(=O)CNC(=O)CCc1cccc(I)c1              %               0
 3  CCCCCCCCCC(=O)CC(=O)NCc1cccc([N+](=O)[O-])c1              %               2
 4    CCOC(=O)CNC(=O)Cc1cccc([N+](=O)[O-])c1              %               0
 5         CCCCCCCCCC(=O)CC(=O)NCc1ccc(F)cc1              %               1
 6             CCOC(=O)CNC(=O)CCc1ccc(OC)cc1              %               0
 7          CCCCCCCCCC(=O)CC(=O)NCCC1=CCCCC1              %               3
 8             CCCCCCCCCC(=O)CC(=O)NCc1ccco1              %               4
 9              CCCCCCCCCC(=O)CC(=O)NC1CCCC1              %               4
10             CCCCCCCCCC(=O)CC(=O)Nc1ccccc1              %               2
11                  CCOC(=O)CNC(=O)Cc1ccccc1              %               0
12  CCCCCCCCCC(=O)CC(=O)Nc1cc(-c2ccc(Cl)cc2)nn1C              %               3
